Test system: SF-268 CNS
assay-comment: NCI tumour cell line growth inhibition, 48 h
readout-kind: TGI

Req: Annotate the compound `COC(=O)c1cc(-c2c[nH]cc2C(=O)OCc2ccccc2)cn1S(=O)(=O)c1ccc(C)cc1` with its measured TGI.
Resp: > 100 µM

Req: Annotate the compound `O=C(NCCNCCO)N/N=C/c1ccc([N+](=O)[O-])cc1` with its measured TGI.
Resp: > 100 µM

Req: Annotate the compound O=C(O)CCC1CCc2cccc3occ1c23 (stereo unspecified) with its measured TGI.
Resp: > 100 µM

Req: Annotate the compound `Clc1ccc(CN2COc3c(cc(Cl)c4cccnc34)C2)cc1` with its measured TGI.
Resp: 12.7 µM

Req: Annotate the compound `O=C1CCc2cc3c(cc21)CC1(Cc2ccccc2C1)C3` with its measured TGI.
Resp: > 100 µM

Req: Annotate the compound `CN(C)C(=C1c2cc([N+](=O)[O-])ccc2-c2ccc([N+](=O)[O-])cc21)N(C)C` with its measured TGI.
Resp: > 100 µM

Req: Annotate the compound NC1CNC(=O)c2cscc21 (stereo unspecified) with its measured TGI.
Resp: > 100 µM

Req: Annotate the compound `Cc1nnc2sc(-c3ccc(-c4ccccc4Cl)o3)nn12` with its measured TGI.
Resp: > 100 µM

Req: Annotate the compound `Nc1nc(Nc2cccc(F)c2)nc2ccccc12` with its measured TGI.
Resp: > 100 µM

Req: Annotate the compound `Fc1ccc(Nc2nccc(-c3c(-c4ccc(C(F)(F)F)cc4)nn4ncccc34)n2)cc1F` with its measured TGI.
Resp: > 25 µM

Req: Annotate the compound `NCCCc1ccc2oc3ccccc3c2c1` with its measured TGI.
Resp: 39.1 µM

----------
Test system: RPMI-8226 leukemia
assay-comment: NCI tumour cell line growth inhibition, 48 h
Assign TGI to each entry below.

Req: Annotate the compound Cc1ccc2c(c1)ncn2-c1ncnc2c1CC(C)c1ccccc1N2C (configuration not stated) with its measured TGI.
Resp: 1.82 µM

Req: Annotate the compound COC(=O)C(=O)C(C(=O)C=C(C)C)C(=O)C(=O)Nc1cccc(C(C)=O)c1 (configuration not stated) with its measured TGI.
Resp: > 100 µM

Req: Annotate the compound `NCc1ccc(-n2c(-c3nonc3N)nc3cnccc32)cc1` with its measured TGI.
Resp: > 25 µM

Req: Annotate the compound `CCc1c[nH]c2ncnc(N3CC[C@@](N)(CNC(=O)c4ccc(F)cc4F)C3)c12` with its measured TGI.
Resp: > 100 µM

Req: Annotate the compound COc1ccc(/C=C2\CCCC3=C2NC(C)=NC3c2ccc(OC)c(OC)c2)cc1OC (configuration not stated) with its measured TGI.
Resp: 56.3 µM

Req: Annotate the compound `Nc1nnc(-c2ccco2)c(-c2ccco2)n1` with its measured TGI.
Resp: > 100 µM

Req: Annotate the compound `CC(C)(C)OC(=O)CN1CCNCCN(CC(=O)OC(C)(C)C)CC1` with its measured TGI.
Resp: > 100 µM

----------
System: OVCAR-4 ovarian
assay-comment: NCI tumour cell line growth inhibition, 48 h
readout-kind: TGI

Req: Annotate the compound CC(CCCOC(c1ccccc1)(c1ccccc1)c1ccccc1)OC(=O)Nc1cc([N+](=O)[O-])cc([N+](=O)[O-])c1 (stereo not given) with its measured TGI.
Resp: > 100 µM

Req: Annotate the compound `C1=NCCOCCN=Cc2ccccc2OCc2cccc(n2)COc2ccccc21` with its measured TGI.
Resp: > 25 µM

Req: Annotate the compound CC1CC/C(=C\c2ccc(N(C)C)cc2)C(=O)/C1=C/c1ccc(N(C)C)cc1 (stereo not given) with its measured TGI.
Resp: > 100 µM

Req: Annotate the compound `CSCC[C@H]1C(=O)N=C(N)N1C(=O)OCc1ccccc1` with its measured TGI.
Resp: > 100 µM

Req: Annotate the compound `Cc1c(C)c2ccc(OC/C=C3\CCC(=O)O3)cc2oc1=O` with its measured TGI.
Resp: 28.9 µM

----------
Test system: EKVX NSCLC
assay-comment: NCI tumour cell line growth inhibition, 48 h; in the data active = GI50 below about 0.43 µM; inactive = the rest
A correct response names exactly one class from 1 = active, 0 = inactive

Req: For `CC[CH2][Pb]([CH2]CC)([CH2]CC)[NH]S(=O)(=O)c1ccc(C)cc1` , which call appears in the assay record?
Resp: 1

Req: For `CCOC(=O)c1c(C)n(Cc2ccc(Cl)cc2Cl)c2c1cc1oc(=O)c(=O)n3c(Cc4ccccc4)nc2c13` , which call appears in the assay record?
Resp: 0

Req: For CC(=O)OC1C2(CC3N4C(=O)C5(CO)SSC4(CC31O)C(=O)N5C)OC(C)C(C)(C)C2=O (centres undefined) , which call appears in the assay record?
Resp: 1

Req: For CC1=CC(=O)C(C(C)=Nc2ccccc2Cl)C(=O)O1 (centres undefined) , which call appears in the assay record?
Resp: 0

Req: For `CC(C)OC(=O)c1ccc2[nH]c(O)c(C(=Nc3ccc(N(C)C(=O)CN4CCN(C)CC4)cc3)c3ccccc3)c2c1` , which call appears in the assay record?
Resp: 0

Req: For C=C[C@]1(C)C=C2C(=O)[C@@]3(O)OC[C@@]4(CCCC(C)(C)C43O)C2(O)C(O)C1 (some centres undefined) , which call appears in the assay record?
Resp: 0

Req: For `Cc1cn2c(/C=N/N/C(N)=N\N)c(-c3ccc(Cl)c([N+](=O)[O-])c3)nc2s1` , which call appears in the assay record?
Resp: 0

Req: For `Fc1ccc(Nc2nccc(-c3c(-c4ccc(C(F)(F)F)cc4)nn4ncccc34)n2)cc1F` , which call appears in the assay record?
Resp: 0

Req: For `CCOC(=O)c1cnn(-c2ccnc3c(C(F)(F)F)cccc23)c1N` , which call appears in the assay record?
Resp: 0

----------
Test system: OVCAR-4 ovarian
assay-comment: NCI tumour cell line growth inhibition, 48 h
readout-kind: GI50

Req: Annotate the compound C=C[C@]1(C)C=C2C(=O)[C@@]3(O)OC[C@@]4(CCCC(C)(C)C43O)C2(O)C(O)C1 (stereo partly drawn) with its measured GI50.
Resp: 2320 nM

Req: Annotate the compound `Oc1cc(Cl)ccc1Oc1ccc(Cl)cc1Cl` with its measured GI50.
Resp: 2790 nM

Req: Annotate the compound `CN(C)c1ccc(N=Nc2c([O-])ccc3ccccc23)cc1.[C-]#[O+].[C-]#[O+].[Ir]` with its measured GI50.
Resp: 25400 nM

----------
Assign TGI to each entry below.
Tested on: OVCAR-3 ovarian
assay-comment: NCI tumour cell line growth inhibition, 48 h
Numbers only; they are read as µM.

Req: Annotate the compound `O=c1oc2ccc(Cl)cc2c(=O)n1-c1ccc(I)cc1F` with its measured TGI.
Resp: 13.3

Req: Annotate the compound C/C1=C\CC[C@@](C)(O)[C@@H]2CC3[C@@H](OC(=O)C34CC4)[C@@H](O2)[C@H](C)CCC1 (stereo partly specified) with its measured TGI.
Resp: 39.6

Req: Annotate the compound N#CC1C(N)=NNC12Nc1ccccc1N2 (stereo unspecified) with its measured TGI.
Resp: 19.4

----------
Tested on: SW-620 colon
assay-comment: NCI tumour cell line growth inhibition, 48 h
Assign TGI to each entry below.

Req: Annotate the compound `CC(=O)Oc1ccccc1C(=O)C1c2cccc(O)c2C(=O)c2c(O)cccc21` with its measured TGI.
Resp: 2.26 µM

Req: Annotate the compound Cc1ccc2c(c1)ncn2-c1ncnc2c1CC(C)c1ccccc1N2C (stereo unspecified) with its measured TGI.
Resp: 15.9 µM

Req: Annotate the compound COC1CC(n2cnc3c(N)ncnc32)OC1CO (stereo unspecified) with its measured TGI.
Resp: > 100 µM

Req: Annotate the compound `CN1CN(c2ccccc2)C2(CCN(CCCC(=O)c3cccs3)CC2)C1=O` with its measured TGI.
Resp: > 100 µM

Req: Annotate the compound CCN1C(=O)N(CC)C2C1NN=c1s/c(=C3\C(=O)N(C)c4ccccc43)c(=O)n12 (stereo unspecified) with its measured TGI.
Resp: > 100 µM

Req: Annotate the compound C=C[C@]1(C)C=C2C(=O)[C@@]3(O)OC[C@@]4(CCCC(C)(C)C43O)C2(O)C(O)C1 (stereo partly specified) with its measured TGI.
Resp: 2.31 µM

Req: Annotate the compound `O=C1c2ccccc2C(=O)C1C(c1ccc([N+](=O)[O-])cc1)C1C(=O)c2ccccc2C1=O` with its measured TGI.
Resp: 32.3 µM

Req: Annotate the compound `[O-]c1on[n+]2c1c(Nc1ccc(Cl)cc1)nc1ccccc12` with its measured TGI.
Resp: > 100 µM

Req: Annotate the compound `CCCCCCCCCCCCC(=O)[O-].CCCCCCCCCCCCC(=O)[O-].CCCCCCCCCCCCC(=O)[O-].CCCCCCCCCCCCC(=O)[O-].[Mo+2].[Mo+2]` with its measured TGI.
Resp: 29 µM

Req: Annotate the compound Cc1cccc(C(C)(C)C)c1NC(=O)C(=O)C(c1cnc2ccccc2n1)[N+](=O)[O-] (stereo unspecified) with its measured TGI.
Resp: > 100 µM

Req: Annotate the compound `Cn1c(COC(=O)NC2CCCCC2)c(COC(=O)NC2CCCCC2)c2ccc3cc(Cl)c(Cl)cc3c21` with its measured TGI.
Resp: 32.8 µM

Req: Annotate the compound `NC(N)=NC(N)=Nc1c(F)c(F)c(F)c(F)c1F` with its measured TGI.
Resp: > 100 µM

Req: Annotate the compound `NCc1ccc(-n2c(-c3nonc3N)nc3cnccc32)cc1` with its measured TGI.
Resp: > 25 µM

Req: Annotate the compound `CC(C)OC(=O)c1ccc2[nH]c(O)c(C(=Nc3ccc(N(C)C(=O)CN4CCN(C)CC4)cc3)c3ccccc3)c2c1` with its measured TGI.
Resp: 1.62 µM

Req: Annotate the compound O=C1C(N=Nc2ccc(-c3nc4ccccc4o3)cc2)NC(=S)N1c1ccccc1 (stereo unspecified) with its measured TGI.
Resp: > 100 µM

Req: Annotate the compound `Nc1nnc(-c2ccco2)c(-c2ccco2)n1` with its measured TGI.
Resp: > 100 µM

Req: Annotate the compound `CCOC(=O)c1cnn(-c2ccnc3c(C(F)(F)F)cccc23)c1N` with its measured TGI.
Resp: > 100 µM

Req: Annotate the compound `O=C1CCC[C@H]2O[C@@H](COCc3ccccc3)C[C@@H]12` with its measured TGI.
Resp: > 100 µM

Req: Annotate the compound O=c1[nH]cnc2c(C3OC(CO)C(O)C3O)scc12 (stereo unspecified) with its measured TGI.
Resp: > 100 µM

Req: Annotate the compound CN1C(=O)C(O)CC1c1cccc(F)c1 (stereo unspecified) with its measured TGI.
Resp: > 100 µM

Req: Annotate the compound `COc1ccc2c(C(=O)O)cc3cc(OC)c(OC)cc3c2c1` with its measured TGI.
Resp: > 100 µM

Sourced from PubChem BioAssay (NCI)
